Test system: Bacillus subtilis
assay_protocol: Antibacterial activity against Bacillus subtilis MTCC 2063 after 24 hr by tube dilution method
Assay type: functional
endpoint_name: -logMIC

1. COc1cccc(/C=N/c2c(C)n(C)n(-c3ccccc3)c2=O)c1 :: 1.11
2. COc1cccc(/C=N/c2c(C)n(C)n(-c3ccccc3)c2=O)c1O :: 1.13
3. Cc1c(/N=C/c2cccc([N+](=O)[O-])c2)c(=O)n(-c2ccccc2)n1C :: 1.43
4. Cc1c(/N=C/c2ccc(Cl)cc2Cl)c(=O)n(-c2ccccc2)n1C :: 1.16
5. Cc1c(/N=C/c2ccc(O)cc2)c(=O)n(-c2ccccc2)n1C :: 1.39

---

Test system: Bacillus subtilis
assay_protocol: Bactericidal activity against Bacillus subtilis MTCC 2063
Format: functional
endpoint_name: MBC

1. COc1ccccc1/C=N/c1c(C)n(C)n(-c2ccccc2)c1=O :: >0.16 uM/ml
2. CCOc1cc(/C=N/c2c(C)n(C)n(-c3ccccc3)c2=O)ccc1O :: >0.14 uM/ml
3. CCn1cc(C(=O)O)c(=O)c2cc(F)c(N3CCNCC3)cc21 :: 0.019 uM/ml
4. Cc1c(/N=C/c2ccccc2Cl)c(=O)n(-c2ccccc2)n1C :: >0.15 uM/ml
5. Cc1c(/N=C/c2ccccc2)c(=O)n(-c2ccccc2)n1C :: >0.17 uM/ml
6. Cc1c(/N=C/c2cccc(Cl)c2)c(=O)n(-c2ccccc2)n1C :: >0.15 uM/ml
7. Cc1c(/N=C/c2ccc(O)cc2)c(=O)n(-c2ccccc2)n1C :: >0.16 uM/ml
8. Cc1c(/N=C/c2ccc(Cl)cc2Cl)c(=O)n(-c2ccccc2)n1C :: >0.14 uM/ml
9. Cc1c(/N=C/c2cccc(O)c2)c(=O)n(-c2ccccc2)n1C :: >0.16 uM/ml
10. COc1cc(/C=N/c2c(C)n(C)n(-c3ccccc3)c2=O)cc(OC)c1OC :: >0.13 uM/ml
11. COc1ccc(/C=N/c2c(C)n(C)n(-c3ccccc3)c2=O)cc1 :: >0.16 uM/ml
12. COc1ccc(/C=N/c2c(C)n(C)n(-c3ccccc3)c2=O)cc1OC :: >0.14 uM/ml
13. COc1cccc(/C=N/c2c(C)n(C)n(-c3ccccc3)c2=O)c1O :: >0.15 uM/ml
14. Cc1c(/N=C/c2ccc(Cl)cc2)c(=O)n(-c2ccccc2)n1C :: >0.15 uM/ml
15. Cc1c(/N=C/c2cccc([N+](=O)[O-])c2)c(=O)n(-c2ccccc2)n1C :: >0.15 uM/ml
16. COc1cccc(/C=N/c2c(C)n(C)n(-c3ccccc3)c2=O)c1 :: >0.16 uM/ml

---

System: Candida albicans
assay_protocol: Fungicidal activity against Candida albicans MTCC 227
Assay type: functional
endpoint_name: MFC

1) Cc1c(/N=C/c2cccc([N+](=O)[O-])c2)c(=O)n(-c2ccccc2)n1C :: >0.15 uM/ml
2) CCOc1cc(/C=N/c2c(C)n(C)n(-c3ccccc3)c2=O)ccc1O :: >0.14 uM/ml
3) OC(Cn1cncn1)(Cn1cncn1)c1ccc(F)cc1F [FLUCONAZOLE] :: 0.04 uM/ml
4) Cc1c(/N=C/c2ccccc2)c(=O)n(-c2ccccc2)n1C :: >0.17 uM/ml
5) COc1cc(/C=N/c2c(C)n(C)n(-c3ccccc3)c2=O)cc(OC)c1OC :: >0.13 uM/ml
6) Cc1c(/N=C/c2ccc(O)cc2)c(=O)n(-c2ccccc2)n1C :: >0.16 uM/ml
7) Cc1c(/N=C/c2ccc(Cl)cc2)c(=O)n(-c2ccccc2)n1C :: >0.15 uM/ml
8) Cc1c(/N=C/c2ccc(Cl)cc2Cl)c(=O)n(-c2ccccc2)n1C :: >0.14 uM/ml
9) COc1ccccc1/C=N/c1c(C)n(C)n(-c2ccccc2)c1=O :: >0.16 uM/ml
10) COc1ccc(/C=N/c2c(C)n(C)n(-c3ccccc3)c2=O)cc1OC :: >0.14 uM/ml
